# measurement-protocol: Volume of distribution at steady state in Sprague-Dawley rat at 1 ml/kg,iv measured upto 24 hrs by UPLC-MS/MS analysis
# Format: ADME
# condition-info: in vivo, read-out: Vdss
value-type: Vd (L/kg)
One number for each entry, in L/kg.

Completed entries (count: 2):
[
  {
    "compound": "COC(=O)N[C@H](C(=O)N[C@@H](Cc1ccccc1)[C@H](CN(Cc1ccc(-c2ccccn2)cc1)NC(=O)[C@@H](NC(=O)OC)C(C)(C)C)OC(=O)OC(OC(=O)[C@@H](NC(=O)[C@H](N)C(C)C)C(C)C)C(C)C)C(C)(C)C (stereo in doubt; 6h)",
    "experimental-result": 1
  },
  {
    "compound": "COC(=O)N[C@H](C(=O)N[C@@H](Cc1ccccc1)[C@H](CN(Cc1ccc(-c2ccccn2)cc1)NC(=O)[C@@H](NC(=O)OC)C(C)(C)C)OC(=O)OC(OC(=O)[C@H](N)C(C)C)C(C)C)C(C)(C)C (stereo in doubt; 5j)",
    "experimental-result": 7.7
  }
]

Next, consider the following compound.
Can you look up the measured Vd of COC(=O)N[C@H](C(=O)N[C@@H](Cc1ccccc1)[C@H](CN(Cc1ccc(-c2ccccn2)cc1)NC(=O)[C@@H](NC(=O)OC)C(C)(C)C)OC(=O)OC(OC(=O)[C@@H](N)C(C)C)C(C)C)C(C)(C)C (stereo in doubt; 3s) for me?
35

###

# measurement-protocol: Aqueous stability of the compound in phosphate buffer at pH 6.5 assessed as compound half life measured after 24 hrs by UPLC analysis
# Assay type: physicochemical
# condition-info: buffer, pH 6.5, 24 h, 24 h
value-type: t1/2 (h)
Numbers only, in h.

[
  {
    "compound": "COC(=O)N[C@H](C(=O)N[C@@H](Cc1ccccc1)[C@H](CN(Cc1ccc(-c2ccccn2)cc1)NC(=O)[C@@H](NC(=O)OC)C(C)(C)C)OC(=O)OC(OC(=O)[C@H](N)C(C)C)C(C)C)C(C)(C)C (stereo in doubt; 5j)",
    "t1/2 (h)": 15.3
  }
]

Next, consider the following compound.
Can you look up the measured t1/2 of COC(=O)N[C@H](C(=O)N[C@@H](Cc1ccccc1)[C@H](CN(Cc1ccc(-c2ccccn2)cc1)NC(=O)[C@@H](NC(=O)OC)C(C)(C)C)OC(=O)OC(OC(=O)[C@@H](N)C(C)C)C(C)(C)C)C(C)(C)C (mixture of isomers) for me?
65.4

###

# measurement-protocol: Aqueous solubility of compound at pH 6.5 by UPLC analysis
# Type: physicochemical
# condition-info: buffer
For each entry below, report its solubility value.

Completed entries (count: 3):
[
  {
    "compound": "COC(=O)N[C@H](C(=O)N[C@@H](Cc1ccccc1)[C@H](CN(Cc1ccc(-c2ccccn2)cc1)NC(=O)[C@@H](NC(=O)OC)C(C)(C)C)OC(=O)OC(OC(=O)[C@@H](N)Cc1ccccc1)C(C)C)C(C)(C)C (stereo in doubt; 3w)",
    "experimental-result": "> 890 µg/mL"
  },
  {
    "compound": "COC(=O)N[C@H](C(=O)N[C@@H](Cc1ccccc1)[C@H](CN(Cc1ccc(-c2ccccn2)cc1)NC(=O)[C@@H](NC(=O)OC)C(C)(C)C)OC(=O)OC(OC(=O)[C@@H](NC(=O)[C@@H](N)C(C)C)C(C)C)C(C)C)C(C)(C)C (stereo in doubt; 6f)",
    "experimental-result": "8 µg/mL"
  },
  {
    "compound": "COC(=O)N[C@H](C(=O)N[C@@H](Cc1ccccc1)[C@H](CN(Cc1ccc(-c2ccccn2)cc1)NC(=O)[C@@H](NC(=O)OC)C(C)(C)C)OC(=O)OC(OC(=O)[C@@H](N)Cc1ccccc1)C(C)C)C(C)(C)C (stereo in doubt; 3v)",
    "experimental-result": "< 1 µg/mL"
  }
]

Can you look up the measured solubility of COC(=O)N[C@H](C(=O)N[C@@H](Cc1ccccc1)[C@H](CN(Cc1ccc(-c2ccccn2)cc1)NC(=O)[C@@H](NC(=O)OC)C(C)(C)C)OC(=O)OC(OC(=O)C1(N)CC1)C(C)C)C(C)(C)C (stereo in doubt; 3x) for me?
< 1.5 µg/mL

Entry source: ChEMBL document CHEMBL5137093
